measurement-type: logP
API note: the answer field is a bare number with no unit suffix.

For the compound "O=C(NCC(F)(F)F)NS(=O)(=O)c1cnccc1NC1CCCCCC1" , what logP is on record?
0.95

For the compound "O=C(NC1CCCCCC1)NS(=O)(=O)c1cnccc1Nc1cccc(C(F)(F)F)c1" , what logP is on record?
2.02

====

Assay: method code SF-AS, from DOI: 10.1016/0731-7085(96)01773-6, PMID: 8877846
Record form. Attribute: logP. Fill in for each entry.
API note: the answer field is a bare number with no unit suffix.

For the compound "O=C1O[C@H]([C@@H](O)CO)C(O)=C1O" , what logP is on record?
-1.84

For the compound C#CCN(C)C(C)Cc1ccc(F)cc1 (configuration not stated) , what logP is on record?
3
